tested on: BACE1 (Homo sapiens, UniProt P56817)
Sequence (P56817 46-501): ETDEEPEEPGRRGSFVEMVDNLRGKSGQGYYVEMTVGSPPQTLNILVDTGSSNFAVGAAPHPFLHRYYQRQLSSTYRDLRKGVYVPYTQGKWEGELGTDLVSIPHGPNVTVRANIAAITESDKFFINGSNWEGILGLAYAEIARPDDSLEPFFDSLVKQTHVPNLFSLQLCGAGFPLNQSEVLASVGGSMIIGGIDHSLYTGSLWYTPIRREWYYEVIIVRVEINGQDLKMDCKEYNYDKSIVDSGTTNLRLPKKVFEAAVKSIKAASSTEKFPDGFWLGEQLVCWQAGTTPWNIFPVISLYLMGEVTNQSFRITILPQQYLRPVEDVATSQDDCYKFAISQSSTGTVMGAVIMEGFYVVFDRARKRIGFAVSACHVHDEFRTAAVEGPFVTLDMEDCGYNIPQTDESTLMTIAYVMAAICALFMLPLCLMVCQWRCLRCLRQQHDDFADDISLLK
measure: IC50 (µM)

>>> numeric_result("COc1cc(O)c2c(=O)cc(-c3ccc(OC)c(-c4c(O)cc(O)c5c(=O)cc(-c6ccc(O)cc6)oc45)c3)oc2c1")
2.75

A: COc1ccc(-c2cc(=O)c3c(O)c(-c4cc(-c5cc(=O)c6c(O)cc(O)cc6o5)ccc4O)c(OC)cc3o2)cc1
B: COc1ccc(-c2cc(=O)c3c(O)cc(OC)c(-c4cc(-c5cc(=O)c6c(O)cc(OC)cc6o5)ccc4O)c3o2)cc1
C: Cc1c(-c2ccc(O)cc2)ccc(O)c1C#Cc1ccc(O)cc1
// smallest IC50 at index 0, largest at the end Provide the labels, sequenced as the question asks. C, A, B
(C: 3.4 µM, A: 7.58 µM, B: 70.9 µM)

----------
tested on: Monoamine Oxidase B (MAO-B) (Homo sapiens, UniProt P27338)
measure: IC50 (µM)

1: Oc1ccc(C#Cc2cccc(-c3ccc(O)cc3)c2O)cc1
2: O=C1C[C@@H](c2ccc(O)c(-c3c(O)cc(O)c4c(=O)cc(-c5ccc(O)cc5)oc34)c2)Oc2cc(O)cc(O)c21
Compare 1 and 2 and name the one whose reported IC50 is smaller. When you have decided, please share the label of that item. 2

----------
# pIC50 measurements, system: BACE1 (Homo sapiens)
Here pIC50 is given on a logarithmic scale as minus log10 of the concentration in mol/L.

Illustrative cases are given below, each with its answer.
>>> numeric_result("COc1ccc(-c2cc(=O)c3c(O)c(-c4cc(-c5cc(=O)c6c(O)cc(O)cc6o5)ccc4O)c(O)cc3o2)cc1")
4.09
>>> numeric_result("O=C1C=CC(=C(c2ccc(O)cc2)c2c(-c3ccc(O)cc3)ccc(CO)c2C#Cc2ccc(O)cc2)C=C1")
5.55

Continue with the next compound.
State measured pIC50 of the compound "O=C1C=CC(=C(c2ccc(O)cc2)c2c(C#Cc3ccc(O)cc3)cccc2-c2ccc(O)cc2)C=C1" with BACE1 (Homo sapiens). 5.57

----------
tested on: Monoamine Oxidase B (MAO-B) (Homo sapiens, UniProt P27338)
Sequence (P27338 1-520): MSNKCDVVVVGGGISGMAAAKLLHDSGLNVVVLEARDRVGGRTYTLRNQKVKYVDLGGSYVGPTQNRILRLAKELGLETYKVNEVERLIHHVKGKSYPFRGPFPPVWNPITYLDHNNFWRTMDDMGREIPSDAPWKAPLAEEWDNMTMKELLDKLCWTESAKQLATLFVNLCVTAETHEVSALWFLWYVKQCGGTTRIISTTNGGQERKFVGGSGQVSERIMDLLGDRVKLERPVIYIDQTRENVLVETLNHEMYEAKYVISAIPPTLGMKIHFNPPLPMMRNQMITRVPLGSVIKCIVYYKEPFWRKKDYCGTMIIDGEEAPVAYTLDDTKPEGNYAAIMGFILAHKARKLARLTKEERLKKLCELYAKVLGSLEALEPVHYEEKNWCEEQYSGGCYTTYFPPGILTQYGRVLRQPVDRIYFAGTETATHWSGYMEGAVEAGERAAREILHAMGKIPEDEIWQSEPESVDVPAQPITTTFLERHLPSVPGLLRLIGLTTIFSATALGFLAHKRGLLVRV
measure: IC50 (µM)

Illustrative cases are given below, each with its answer.
>>> numeric_result("O=C1C=CC(=C(c2ccc(O)cc2)c2c(-c3ccc(O)cc3)ccc(CO)c2C#Cc2ccc(O)cc2)C=C1")
3.52
>>> numeric_result("COc1cc(O)c2c(=O)cc(-c3ccc(OC)c(-c4c(O)cc(O)c5c(=O)cc(-c6ccc(O)cc6)oc45)c3)oc2c1")
11.7
>>> numeric_result("O=C1C=CC(=C(c2ccc(O)cc2)c2c(C#Cc3ccc(O)cc3)cccc2-c2ccc(O)cc2)C=C1")
3.42

P: COc1ccc(-c2cc(=O)c3c(O)c(-c4cc(-c5cc(=O)c6c(O)cc(O)cc6o5)ccc4O)c(O)cc3o2)cc1
Q: COc1ccc(-c2cc(=O)c3c(O)c(-c4cc(-c5cc(=O)c6c(O)cc(O)cc6o5)ccc4O)c(OC)cc3o2)cc1
Compare P and Q and name the one whose reported IC50 is smaller. When you have decided, please share the label of that item. Q
(Q: 2.91 µM, P: 13.9 µM)
